Where these numbers come from: patent EP2697230B1

# Tested on: HCV pseudoparticles, genotype 1a HCV E1 and E2 envelope (H77C isolate)
# experiment notes: HCV pseudoparticle infection assay (luciferase reporter, Huh7 cells)
# Assay type: cell-based
# experimental setup: Hepatitis C virus, Huh-7, 48 h, read-out: EC50 (nM) 1a (H77C), numeric value, HCV pseudoparticles genotype 1a (H77C), luciferase 2 days after infection
measurement name: EC50 (nM)
One number for each entry, in nM.

{"record smiles": "O=C1COCC(=O)NCc2ccc(cc2)Nc2nc(nc(OCC(F)(F)F)n2)NCc2ccc(cc2)CN1", "uom": "nM", "EC50": 78.8}
{"record smiles": "COC(=O)N1CCCNC(=O)c2ccc(cc2)Nc2nc(nc(OCC(F)(F)F)n2)NCc2ccc(cc2)OCCC1", "uom": "nM", "EC50": 1.51}
{"record smiles": "COCC(=O)N1CCCCNC(=O)c2ccc(cc2)Nc2nc(nc(OCC(F)(F)F)n2)NCc2ccc(cc2)OCC1", "uom": "nM", "EC50": 4.37}
{"record smiles": "O=C1CCCNC(=O)c2ccc(cc2)Nc2nc(nc(OCC(F)(F)F)n2)NCc2ccc(cc2)OCC=CCS(=O)(=O)N1", "uom": "nM", "EC50": 20.3}
{"record smiles": "CN1CCCN(C)CCCN(C)C(=O)c2ccc(cc2)Nc2nc(nc(OCC(F)(F)F)n2)Nc2ccc(cc2)C(=O)N(C)CCC1", "uom": "nM", "EC50": 16300}

Give EC50 for all compounds that follow.
1. O=C1CCCCNC(=O)c2ccc(cc2)Nc2nc(nc(OCC(F)(F)F)n2)NCc2ccc(cc2)OC/C=C/S(=O)(=O)N1
2. CN1CCCN(C)CCCN(C)C(=O)c2ccc(cc2)Nc2nc(nc(OCC(F)(F)F)n2)NCc2ccc(cc2)C(=O)N(C)CCC1
3. CC(C)(C)NC(=O)N1CCCCNC(=O)c2ccc(cc2)Nc2nc(nc(OCC(F)(F)F)n2)NCc2ccc(cc2)OCC1
4. CCNC(=O)N1CCCCNC(=O)c2ccc(cc2)Nc2nc(nc(OCC(F)(F)F)n2)NCc2ccc(cc2)OCCC1
5. O=C1CNC(=O)c2ccc(cc2)Nc2nc(nc(OCC(F)(F)F)n2)NCc2ccc(cc2)OCC=CCS(=O)(=O)N1

Outgoing:
275
21600
8.47
11.8
557

Give EC50 for all compounds that follow.
1. CCNC(=O)N1CCCNC(=O)c2ccc(cc2)Nc2nc(nc(OCC(F)(F)F)n2)NCc2ccc(cc2)OCCC1
2. O=C1NCc2ccc(cc2)Nc2nc(nc(OCC(F)(F)F)n2)NCc2cccc(c2)CNC(=O)NC2CCC(CC2)CC2CCC(CC2)N1
3. CC(=O)N1CCCCNC(=O)c2ccc(cc2)Nc2nc(nc(OCC(F)(F)F)n2)NCc2ccc(cc2)OCC1

Outgoing:
6.1
5210
105

----------
# Test system: HCV pseudoparticles, genotype 1a HCV E1 and E2 envelope (H77C isolate)
# experiment notes: HCV pseudoparticle infection assay (luciferase reporter, Huh7 cells)
# Format: cell-based
# experimental setup: class symbol, HCV pseudoparticles genotype 1a (H77C), luciferase 2 days after infection, read-out: EC50 (nM) 1a (H77C)
measurement name: EC50

{"compound": "O=C1NC2CNCC2C(=O)NCCCCCCOc2ccc(cc2)CNc2nc(nc(OCC(F)(F)F)n2)Nc2ccc1cc2 (centres unmarked) [Example 0007]", "EC50": "0.1 to 100 nM"}
{"compound": "O=C1NCCCCNC(=O)C2(CC2)Nc2nc(nc(OCC(F)(F)F)n2)Nc2ccc1cc2 [Example 0006]", "EC50": "1000 to 5000 nM"}
{"compound": "O=C1NCCCCCCCCCCNc2nc(nc(OCC(F)(F)F)n2)Nc2ccc1cc2 [Example 0003]", "EC50": "100 to 1000 nM"}
{"compound": "O=C1NCCCOCCCCOCCCNc2nc(nc(OCC(F)(F)F)n2)Nc2ccc1cc2 [Example 0004]", "EC50": "0.1 to 100 nM"}
{"compound": "O=C1NCCCNCCCOc2ccc(cc2)C2(CC2)Nc2nc(nc(OCC(F)(F)F)n2)Nc2ccc1cc2 [Example 5001]", "EC50": "0.1 to 100 nM"}

Give EC50 for all compounds that follow.
1. O=C1NCCCNCCCCCCCCNc2nc(nc(OCC(F)(F)F)n2)Nc2ccc1cc2 [Example 9001]
2. O=C1NCCNCCNc2nc(nc(OCC(F)(F)F)n2)Nc2ccc1cc2 [Example 0001]
3. O=C1NCCCCCCCCNc2nc(nc(OCC(F)(F)F)n2)Nc2ccc1cc2 [Example 0002]

Outgoing:
["100 to 1000 nM", "1000 to 5000 nM", "0.1 to 100 nM"]
